These measurements were taken from paper PMC4335872.

# experiment notes: In vivo PK after single p.o. and i.v. dosing in CD-1 mice
# Design: species or system female CD-1 mice
# stated conditions: female, mouse, plasma; oral 105 mg/kg, CD-1 mice, HCl/Solutol HS15/citrate pH 3 formulation; read-out: AUC0–24
observable: AUC(0-t)
Be sure to follow the number with its unit.

Please give the measured AUC(0-t) for this compound: C[C@H]1Cc2c([nH]c3cc(Cl)c(F)cc23)[C@@]2(N1)C(=O)Nc1ccc(Cl)cc12 [(+)-7 (KAE609)]
187 µg·h/mL

====

# experiment notes: RBC to plasma partitioning
# Type: in vitro ADME
# stated conditions: mean from 1 µM & 10 µM
Outcome: T for RBC to Plasma Ratio of at least 0.9; F for anything lower.

INSERT INTO results (compound, class) VALUES
  ('C[C@H]1Cc2c([nH]c3ccc(Cl)cc23)[C@@]2(N1)C(=O)Nc1ccc(Cl)cc12 [(+)-2]', 'F');

# ---- query compound ----
Exam item: decide whether the reported RBC to Plasma Ratio for C[C@H]1Cc2c([nH]c3cc(F)c(F)cc23)[C@@]2(N1)C(=O)Nc1ccc(Cl)cc12 [(+)-6] is at least 0.9.
T
